System: UO-31
Experiment: NCI tumour cell line growth inhibition, 48 h
Active and inactive are the calls of the source. Cut-off read from the data, not from the text of the source: active = GI50 up to about 1.1 µM and inactive = higher. Non-standard residues stand in square brackets, D forms with d. Residues, ends and D or L forms follow the SMILES beside them. *: point of attachment. hSer = N[CH](CCO)C(=O)O; Boc = CC(C)(C)OC(=O)*
Response enum: active, inactive

Please review the following examples before continuing.
{"COMPOUND": "O=c1cnnc2sc(=S)[nH]n12", "SUBJECT_OF_TEST": "UO-31", "CLASSIFICATION": "inactive"}
{"COMPOUND": "CC(=O)Oc1ccc(Nn2c3ccccc3c3ccccc32)c(C)c1", "SUBJECT_OF_TEST": "UO-31", "CLASSIFICATION": "inactive"}
{"COMPOUND": "COc1cc2c(cc1OC)-c1c3c(cc4c1[C@@H](C2)N(C)CC4)OCO3", "SUBJECT_OF_TEST": "UO-31", "CLASSIFICATION": "inactive"}
{"COMPOUND": "c1ccc(OCCSCCCCCCCCCCSCCOc2ccccc2)cc1", "SUBJECT_OF_TEST": "UO-31", "CLASSIFICATION": "inactive"}
{"COMPOUND": "COc1ccc(CC2(O)C3CC4CCC2C4C3)cc1 (centres undefined)", "SUBJECT_OF_TEST": "UO-31", "CLASSIFICATION": "inactive"}
{"COMPOUND": "CC(C)=CC1CCc2ccccc2N1S(=O)(=O)c1ccc(C)cc1 (centres undefined)", "SUBJECT_OF_TEST": "UO-31", "CLASSIFICATION": "inactive"}
{"COMPOUND": "COc1ccc2c(c1O)[C@@]13CCCC=C1[C@@H](C2)[N+](C)(C)CC3", "SUBJECT_OF_TEST": "UO-31", "CLASSIFICATION": "inactive"}
{"COMPOUND": "O=C1NC2CCCCCC2C12CCCCC2 (centres undefined)", "SUBJECT_OF_TEST": "UO-31", "CLASSIFICATION": "inactive"}

Which outcome was assigned to COc1cc(/C=C2\C(=O)N(c3ccc(Cl)cc3)C(c3ccccc3)S2(=O)=O)cc(OC)c1OC (centres undefined) in this test?
inactive

Which outcome was assigned to O=C1/C(=C/c2ccc(Cl)cc2)Oc2cc(O)ccc21 [6-HYDROXY-4'-CHLORO AURONE] in this test?
inactive

Which outcome was assigned to O=C(c1cccc2ccccc12)C1S(=O)(=O)OCCOS1(=O)=O in this test?
inactive

Which outcome was assigned to COCCC(NC(=O)C(CC(C)C)NC(=O)OC(C)(C)C)C(N)=O (stereo not drawn) (Boc-Leu-[hSer](Me)-NH2; configuration not given here) in this test?
inactive

Which outcome was assigned to COC(=O)[C@]12C3=C(O)C(=O)C[C@H]1OC[C@H]2C=CC3 in this test?
inactive

Which outcome was assigned to N#CCCN(CCC#N)c1ccc(/C=C2\N=C(c3ccccc3)N(c3ccc(F)cc3)C2=O)cc1 in this test?
inactive

Which outcome was assigned to CN(C)CCCOC(=O)C(c1ccccc1)C1(O)CCSCC1 (centres undefined) in this test?
inactive

###

Tested on: NCI-H226
Test: NCI tumour cell line growth inhibition, 48 h
Active and inactive are the calls of the source. Cut-off read from the data, not from the text of the source: active = GI50 up to about 1.1 µM and inactive = higher.
Response enum: y = active, n = inactive

Please review the following examples before continuing.
{"COMPOUND": "Cc1c(NC(=O)Nc2c(Cl)cccc2Cl)c(=O)n(-c2ccccc2)n1C", "CLASSIFICATION": "n"}
{"COMPOUND": "Cc1cc(C)c(S(=O)(=O)N(CCCCCCN)OCCCN)c(C)c1", "CLASSIFICATION": "n"}
{"COMPOUND": "COc1ccc(/C=C2\\CC3C4CC=C5C[C@@H](O)CC[C@]5(C)C4CC[C@]3(C)C2=O)cc1OC (stereo not given in full)", "CLASSIFICATION": "n"}
{"COMPOUND": "Nc1c(OCC(=O)O)ccc2cc(S(=O)(=O)O)ccc12", "CLASSIFICATION": "n"}
{"COMPOUND": "O=C1N/C(=N/N=C/C(O)C(O)C(O)C(O)CO)N/C1=C\\c1cccs1 (stereo not given)", "CLASSIFICATION": "n"}
{"COMPOUND": "C=C(C)C(=O)O[C@H]1CC2=CC(CC(C)=C[C@H]3OC(=O)C(=C)C13)OC2=O (stereo not given in full)", "CLASSIFICATION": "n"}
{"COMPOUND": "CC(C)N(C(=O)C12C3C4C1C1C2C3C41I)C(C)C (stereo not given)", "CLASSIFICATION": "n"}
{"COMPOUND": "CC(C)=CC(O)C(C(O)CCC1(C)OCCO1)S(=O)(=O)c1ccccc1 (stereo not given)", "CLASSIFICATION": "n"}
{"COMPOUND": "O=c1c2ccccc2nc(Cc2nc(-c3ccc(Cl)cc3)cs2)n1-c1ccc(Cl)cc1", "CLASSIFICATION": "n"}
{"COMPOUND": "CNC(=S)NNc1ncnc2c1ncn2-c1ccc(C)cc1", "CLASSIFICATION": "n"}

Which outcome was assigned to CSc1ncc2c(n1)-c1ccccc1OC2 in this test?
n

Which outcome was assigned to Nc1cc(O)c2cc(/N=N/c3ccc(/N=N/c4ccc(/N=N/c5ccc6cc(S(=O)(=O)O)cc(S(=O)(=O)O)c6c5)c5ccccc45)c4cc(S(=O)(=O)O)ccc34)c(S(=O)(=O)O)cc2c1 in this test?
n

Which outcome was assigned to COC(=O)N1C=Cc2c(c(C)c3c([nH]c4ccccc43)c2C)C1C (stereo not given) in this test?
n

Which outcome was assigned to Cc1ccc(/C=C2\Cc3c(C)cc(C)cc3C2=O)c(C(=O)O)c1 in this test?
n

Which outcome was assigned to Cc1cccc2nc3c(=O)[nH]c(=O)nc-3n(C)c12 in this test?
n

Which outcome was assigned to COc1ccc(Cc2cc(OC)c(OC)c(OC)c2)cc1O in this test?
n

Which outcome was assigned to C/C(=N\NC(=O)c1ccncc1)c1sc(-n2nc(-c3ccccc3)cc2-c2ccccc2)nc1C in this test?
n

Which outcome was assigned to CCN(CC)c1ccc2cc(-c3nnc(-c4ccccc4)o3)c(=O)oc2c1 in this test?
n

Which outcome was assigned to COc1ccc(CC2(O)C3CC4CCC2C4C3)cc1 (stereo not given) in this test?
n

Which outcome was assigned to COc1ccc(CC2C(=O)NC(C)C(=O)N(C)C3C(=O)N(C)C(Cc4ccc(O)c(c4)Oc4ccc(cc4)C3O)C(=O)NC(C)C(=O)NC(C)C(=O)N2C)cc1.COc1ccc(CC2C(=O)NC(C)C(=O)N(C)C3Cc4ccc(cc4)Oc4cc(ccc4O)CC(C(=O)NC(C)C(=O)NC(C)C(=O)N2C)N(C)C3=O)cc1 (stereo not given) in this test?
y

###

System: OVCAR-8
Assay: NCI tumour cell line growth inhibition, 48 h
The source made the active and inactive calls. Rule as the data show it: active = GI50 up to about 1.1 µM and inactive = higher.
MEASURED_PROPERTY: GI50

# annotated cases, reported GI50 shown
{"MOLECULE": "CNC(=O)OCc1nc(SC(C)C)n(C)c1COC(=O)NC", "MEASURED_PROPERTY": "GI50", "DATA_VALUE": "> 100 µM (inactive)"}
{"MOLECULE": "COc1ccc(C2ON(c3cccc(C)n3)CC=C2C)cc1 (stereo not given)", "MEASURED_PROPERTY": "GI50", "DATA_VALUE": "> 100 µM (inactive)"}
{"MOLECULE": "O=C(Nc1ccn(C2CC(O)C(COC(c3ccccc3)(c3ccccc3)c3ccccc3)O2)c(=O)n1)c1ccccc1 (stereo not given)", "MEASURED_PROPERTY": "GI50", "DATA_VALUE": "1.97 µM (inactive)"}
{"MOLECULE": "O=C(CC1(O)C(=O)Nc2c(Cl)cc(Cl)cc21)c1ccco1 (stereo not given)", "MEASURED_PROPERTY": "GI50", "DATA_VALUE": "37.4 µM (inactive)"}

Here is the next item to consider.
Enter measured GI50, system OVCAR-8, for the molecule shown: Nc1ccc(S(=O)(=O)Nc2nccs2)cc1
> 100 µM (inactive)

###

Tested on: 786-0
Experiment: NCI tumour cell line growth inhibition, 48 h
Active and inactive are the calls of the source. No stated cut-off is given here; in the data, active = GI50 up to about 1.1 µM and inactive = higher.
Exercise: for every item that follows, state its recorded GI50.

{"COMPOUND": "COc1ccc(Nc2nc3ccccc3nc2C(=O)O)cc1", "GI50": "49.1 µM (inactive)"}
{"COMPOUND": "CC1(C)CCC2=C(O1)/C(=N\\Nc1ccccc1)c1ccccc1C2=O", "GI50": "15.8 µM (inactive)"}
{"COMPOUND": "CC1(Cl)CC(C)(/C=C/Cl)C(Cl)CC1Cl (configuration not stated)", "GI50": "15.4 µM (inactive)"}

I would be grateful if you could provide GI50 for each of the following entries.
1. Cn1nc(-c2ccccc2)c(C(=O)/C=C/c2ccc(Cl)cc2)c(N2CCCCC2)c1=O
2. C[C@@H]1CC(=O)C[C@@H]2CC[C@H]3[C@@H]4CC[C@H](OC(=O)c5cccc6cc7ccccc7nc56)[C@H]4CC[C@@H]3[C@H]21
3. COc1cc(CC2CC(c3ccc4c(c3)OCO4)OC2=O)cc(OC)c1OC (configuration not stated)
4. Nc1ccc(S(=O)(=O)Nc2nccs2)cc1

1. 1.69 µM (inactive)
2. 11.4 µM (inactive)
3. > 100 µM (inactive)
4. > 100 µM (inactive)

Reference source for all entries: ChEMBL document CHEMBL1201862
